Origin of the recorded values: ChEMBL document CHEMBL3879901

In this section we review reported pIC50 values for a set of molecules.
# test target: PI3K p110 beta/p85 alpha (Homo sapiens)
# procedure details: Inhibition of N-terminal His6-tagged recombinant full-length human p110beta/untagged recombinant full length p85alpha expressed in baculovirus infected Sf21 cells using phosphatidylinositol as substrate in presence of gamma-32P-ATP after 5 mins by thin layer chromatographic method
pIC50: −log10 of the molar value.

Worked cases, pIC50 given:
# chemical string, pIC50
rows = [
    ("CC(=O)Nc1nc2ccc(-c3nn(Cc4cc5cccc(C)c5c(=O)n4C4CC4)c4ncnc(N)c34)cc2s1", "> 7.00"),
    ("Cc1ccccc1-n1c(Cn2nc(-c3cnn(C)c3)c3c(N)ncnc32)cc2cccc(C)c2c1=O", "< 5.00"),
    ("Cc1cccc2cc([C@H](C)Nc3nc(F)nc4[nH]cnc34)n(C3CC3)c(=O)c12", "> 7.00"),
    ("Cc1cccc2cc(Cn3nc(Cl)c4c(N)ncnc43)n(-c3ccccc3F)c(=O)c12", "< 5.00"),
    ("Cc1cccnc1-n1c(Cn2nc(-c3ccc(F)c(O)c3)c3c(N)ncnc32)cc2cccc(C)c2c1=O", "< 5.00"),
]

Kindly consider the entry below.
Please give measured pIC50 of the following entry: Cc1cccc2cc(Cn3nc(C#CCO)c4c(N)ncnc43)n(-c3ccccc3F)c(=O)c12 < 5.00

###

# test target: PI3-kinase p110-delta/p85-alpha (Homo sapiens, UniProt O00329)
# Sequence (P27986 whole entry): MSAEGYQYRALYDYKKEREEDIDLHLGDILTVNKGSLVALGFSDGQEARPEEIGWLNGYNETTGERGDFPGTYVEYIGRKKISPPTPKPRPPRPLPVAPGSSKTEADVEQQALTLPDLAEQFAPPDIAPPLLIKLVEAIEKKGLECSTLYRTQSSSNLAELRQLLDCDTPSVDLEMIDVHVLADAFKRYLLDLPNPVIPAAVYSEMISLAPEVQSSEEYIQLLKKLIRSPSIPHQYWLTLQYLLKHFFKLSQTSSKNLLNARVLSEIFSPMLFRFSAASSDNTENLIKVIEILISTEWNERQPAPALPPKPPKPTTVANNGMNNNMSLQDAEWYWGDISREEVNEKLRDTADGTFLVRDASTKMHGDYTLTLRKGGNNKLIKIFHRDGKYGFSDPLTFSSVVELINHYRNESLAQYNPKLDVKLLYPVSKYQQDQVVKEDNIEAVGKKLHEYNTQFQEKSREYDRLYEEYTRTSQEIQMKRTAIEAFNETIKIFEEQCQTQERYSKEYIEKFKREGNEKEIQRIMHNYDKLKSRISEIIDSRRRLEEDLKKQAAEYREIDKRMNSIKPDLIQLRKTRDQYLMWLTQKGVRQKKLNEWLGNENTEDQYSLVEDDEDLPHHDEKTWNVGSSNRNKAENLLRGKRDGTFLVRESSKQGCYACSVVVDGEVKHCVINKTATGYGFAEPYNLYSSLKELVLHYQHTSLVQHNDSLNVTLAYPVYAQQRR
# Sequence (O00329 whole entry): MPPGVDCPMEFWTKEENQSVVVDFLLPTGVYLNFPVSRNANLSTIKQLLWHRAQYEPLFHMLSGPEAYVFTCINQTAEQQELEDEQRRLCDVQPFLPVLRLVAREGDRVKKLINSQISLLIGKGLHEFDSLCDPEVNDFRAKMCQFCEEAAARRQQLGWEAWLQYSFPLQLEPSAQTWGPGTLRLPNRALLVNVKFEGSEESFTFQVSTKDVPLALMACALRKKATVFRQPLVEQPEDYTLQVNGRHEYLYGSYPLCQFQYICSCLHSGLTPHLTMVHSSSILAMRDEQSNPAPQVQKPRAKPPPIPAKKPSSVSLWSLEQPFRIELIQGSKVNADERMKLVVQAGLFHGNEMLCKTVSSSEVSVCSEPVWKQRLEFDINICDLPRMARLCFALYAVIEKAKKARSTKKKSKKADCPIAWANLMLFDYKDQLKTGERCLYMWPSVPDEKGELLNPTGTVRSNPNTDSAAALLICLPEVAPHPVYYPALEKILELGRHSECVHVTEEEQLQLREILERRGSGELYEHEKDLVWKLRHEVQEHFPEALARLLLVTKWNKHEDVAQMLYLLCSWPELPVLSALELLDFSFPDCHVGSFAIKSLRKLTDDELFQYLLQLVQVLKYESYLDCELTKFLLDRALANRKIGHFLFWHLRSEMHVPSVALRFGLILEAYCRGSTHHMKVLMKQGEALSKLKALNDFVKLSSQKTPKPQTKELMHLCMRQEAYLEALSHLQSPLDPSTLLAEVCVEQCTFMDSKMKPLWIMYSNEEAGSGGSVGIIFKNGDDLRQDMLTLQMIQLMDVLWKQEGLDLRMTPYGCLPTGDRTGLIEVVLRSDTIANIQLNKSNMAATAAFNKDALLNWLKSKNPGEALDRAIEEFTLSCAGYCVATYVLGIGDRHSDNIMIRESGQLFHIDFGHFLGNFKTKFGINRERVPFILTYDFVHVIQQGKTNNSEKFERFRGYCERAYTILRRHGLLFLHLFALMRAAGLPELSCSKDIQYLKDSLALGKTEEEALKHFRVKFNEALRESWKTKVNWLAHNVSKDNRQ
# procedure details: Inhibition of N-terminal His6-tagged recombinant full-length human p110delta/untagged recombinant full length p85alpha expressed in baculovirus infected Sf21 cells using phosphatidylinositol as substrate in presence of gamma-32P-ATP after 5 mins by thin layer chromatographic method
In this section we review reported IC50 values for a set of compounds.

Worked cases, IC50 given:
# compound, measured
measured = [
    ("Cc1cccc2cc(Cn3nc(-c4cc(O)cc(F)c4)c4c(N)ncnc43)n(-c3ccccc3F)c(=O)c12", "< 0.1 µM"),
    ("CCC(Nc1ncnc2[nH]cnc12)c1cc2cccc(C)c2c(=O)n1C1CCC1 (stereo not drawn)", "< 0.1 µM"),
    ("Cc1cccnc1-n1c(Cn2nc(C#C[C@@H](C)O)c3c(N)ncnc32)cc2cccc(C)c2c1=O", "< 1 µM"),
    ("Cc1cccc2cc([C@H](C)Nc3nc(F)nc4[nH]cnc34)n(C3CC3)c(=O)c12", "< 0.1 µM"),
    ("Cc1ccccc1-n1c(Cn2nc(-c3ccc4sc(N)nc4c3)c3c(N)ncnc32)cc2cccc(C)c2c1=O", "< 0.1 µM"),
]

Kindly consider the entry below.
Please give measured IC50 of the following entry: Cc1cccc2cc(C(C)Nc3ncnc4[nH]cnc34)n(CCN3CCCC3)c(=O)c12 (stereo not drawn) < 0.1 µM

###

In this section we review reported IC50 values for a set of compounds.
# test target: PI3-kinase p110-delta/p85-alpha (Homo sapiens, UniProt O00329)
# procedure details: Inhibition of N-terminal His6-tagged recombinant full-length human p110delta/untagged recombinant full length p85alpha expressed in baculovirus infected Sf21 cells using phosphatidylinositol as substrate in presence of gamma-32P-ATP after 5 mins by thin layer chromatographic method

Supply IC50 measured with PI3-kinase p110-delta/p85-alpha (Homo sapiens, UniProt O00329) for Cc1ccccc1-n1c(Cn2nc(/C=C/C(=O)N3CCOCC3)c3c(N)ncnc32)cc2cccc(C)c2c1=O . < 1000 nM

Supply IC50 measured with PI3-kinase p110-delta/p85-alpha (Homo sapiens, UniProt O00329) for CCn1c(Cn2nc(-c3cccc(O)c3)c3c(N)ncnc32)cc2cccc(C)c2c1=O . < 100 nM

Supply IC50 measured with PI3-kinase p110-delta/p85-alpha (Homo sapiens, UniProt O00329) for Nc1ncnc2c1c(-c1cc(O)cc(F)c1)nn2Cc1cc2cccc(F)c2c(=O)n1-c1ccccc1F . < 100 nM

Supply IC50 measured with PI3-kinase p110-delta/p85-alpha (Homo sapiens, UniProt O00329) for Cc1ccccc1-n1c(Cn2nc(-c3ccc4nc(N)oc4c3)c3c(N)ncnc32)cc2cccc(C)c2c1=O . < 100 nM

###

# test target: PI3K p110 beta/p85 alpha (Homo sapiens, UniProt P42338)
# Sequence (P42338 whole entry, one chain of several): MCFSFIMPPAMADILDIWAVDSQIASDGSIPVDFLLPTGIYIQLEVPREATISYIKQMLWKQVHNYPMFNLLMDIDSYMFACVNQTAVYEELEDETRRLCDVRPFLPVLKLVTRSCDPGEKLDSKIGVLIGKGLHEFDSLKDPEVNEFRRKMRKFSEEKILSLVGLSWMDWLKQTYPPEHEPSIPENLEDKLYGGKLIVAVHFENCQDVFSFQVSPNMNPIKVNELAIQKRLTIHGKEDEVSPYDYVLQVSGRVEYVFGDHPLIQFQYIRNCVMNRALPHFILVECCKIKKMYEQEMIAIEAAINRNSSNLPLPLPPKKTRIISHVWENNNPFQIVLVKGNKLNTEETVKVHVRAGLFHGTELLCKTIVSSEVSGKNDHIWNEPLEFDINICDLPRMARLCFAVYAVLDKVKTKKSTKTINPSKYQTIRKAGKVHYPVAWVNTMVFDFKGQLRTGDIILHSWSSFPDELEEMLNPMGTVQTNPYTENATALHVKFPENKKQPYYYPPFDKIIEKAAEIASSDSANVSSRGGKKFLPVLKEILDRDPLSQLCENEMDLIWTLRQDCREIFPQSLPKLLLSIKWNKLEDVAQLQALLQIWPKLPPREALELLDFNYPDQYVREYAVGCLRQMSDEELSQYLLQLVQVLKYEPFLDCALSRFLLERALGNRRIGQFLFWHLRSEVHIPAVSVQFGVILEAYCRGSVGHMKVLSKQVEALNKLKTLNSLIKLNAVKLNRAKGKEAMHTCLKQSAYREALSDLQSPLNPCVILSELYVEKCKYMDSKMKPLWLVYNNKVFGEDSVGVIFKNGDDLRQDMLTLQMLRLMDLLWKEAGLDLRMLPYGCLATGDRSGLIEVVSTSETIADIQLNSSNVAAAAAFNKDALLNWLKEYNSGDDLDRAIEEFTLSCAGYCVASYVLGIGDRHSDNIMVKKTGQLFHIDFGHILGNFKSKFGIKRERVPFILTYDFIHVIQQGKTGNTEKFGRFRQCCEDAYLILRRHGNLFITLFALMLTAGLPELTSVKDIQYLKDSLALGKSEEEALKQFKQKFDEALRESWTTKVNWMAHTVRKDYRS
# procedure details: Inhibition of N-terminal His6-tagged recombinant full-length human p110beta/untagged recombinant full length p85alpha expressed in baculovirus infected Sf21 cells using phosphatidylinositol as substrate in presence of gamma-32P-ATP after 5 mins by thin layer chromatographic method
measurement label: IC50

Worked cases, IC50 given:
# chemical string, measured
data = [
    ("Cc1ccccc1-n1c(Cn2nc(-c3cccc(F)c3)c3c(N)ncnc32)cc2cccc(C)c2c1=O", "> 10 µM"),
    ("COc1cc(-c2nn(Cc3cc4cccc(C)c4c(=O)n3-c3ccccc3C)c3ncnc(N)c23)ccc1Cl", "> 10 µM"),
    ("Cc1cccc2cc(Cn3nc(-c4ccc(F)c(O)c4)c4c(N)ncnc43)n(C3CCCC3)c(=O)c12", "> 10 µM"),
]

Kindly consider the entry below.
Please give measured IC50 of the following entry: Cc1cccc2cc(Cn3nc(-c4cccc(O)c4)c4c(N)ncnc43)n(C3CCCC3)c(=O)c12 < 10 µM

###

In this section we review reported IC50 values for a set of compounds.
# test target: PI3K p110 beta/p85 alpha (Homo sapiens)
# procedure details: Inhibition of N-terminal His6-tagged recombinant full-length human p110beta/untagged recombinant full length p85alpha expressed in baculovirus infected Sf21 cells using phosphatidylinositol as substrate in presence of gamma-32P-ATP after 5 mins by thin layer chromatographic method

Worked cases, IC50 given:
# chemical string, test target, measurement label, measured
measured = [
    ("COc1cc(F)cc(-c2nn(Cc3cc4cccc(C)c4c(=O)n3-c3ccccc3C)c3ncnc(N)c23)c1", "PI3K p110 beta/p85 alpha (Homo sapiens)", "IC50", "> 10 µM"),
    ("Cc1cccc2cc(Cn3nc(C#N)c4c(N)ncnc43)n(-c3ccccc3F)c(=O)c12", "PI3K p110 beta/p85 alpha (Homo sapiens)", "IC50", "> 10 µM"),
    ("Cc1cccc2cc(Cn3nc(-c4cccc(O)c4)c4c(N)ncnc43)n(-c3ccccc3O)c(=O)c12", "PI3K p110 beta/p85 alpha (Homo sapiens)", "IC50", "< 10 µM"),
]

Kindly consider the entry below.
Please give measured IC50 of the following entry: COc1ccc(-c2nn(Cc3cc4cccc(C)c4c(=O)n3-c3ccccc3C)c3ncnc(N)c23)cc1OC > 10 µM

###

# test target: PI3-kinase p110-alpha/p85-alpha (Homo sapiens, UniProt P42336)
# Sequence (P42336 whole entry, one chain of several): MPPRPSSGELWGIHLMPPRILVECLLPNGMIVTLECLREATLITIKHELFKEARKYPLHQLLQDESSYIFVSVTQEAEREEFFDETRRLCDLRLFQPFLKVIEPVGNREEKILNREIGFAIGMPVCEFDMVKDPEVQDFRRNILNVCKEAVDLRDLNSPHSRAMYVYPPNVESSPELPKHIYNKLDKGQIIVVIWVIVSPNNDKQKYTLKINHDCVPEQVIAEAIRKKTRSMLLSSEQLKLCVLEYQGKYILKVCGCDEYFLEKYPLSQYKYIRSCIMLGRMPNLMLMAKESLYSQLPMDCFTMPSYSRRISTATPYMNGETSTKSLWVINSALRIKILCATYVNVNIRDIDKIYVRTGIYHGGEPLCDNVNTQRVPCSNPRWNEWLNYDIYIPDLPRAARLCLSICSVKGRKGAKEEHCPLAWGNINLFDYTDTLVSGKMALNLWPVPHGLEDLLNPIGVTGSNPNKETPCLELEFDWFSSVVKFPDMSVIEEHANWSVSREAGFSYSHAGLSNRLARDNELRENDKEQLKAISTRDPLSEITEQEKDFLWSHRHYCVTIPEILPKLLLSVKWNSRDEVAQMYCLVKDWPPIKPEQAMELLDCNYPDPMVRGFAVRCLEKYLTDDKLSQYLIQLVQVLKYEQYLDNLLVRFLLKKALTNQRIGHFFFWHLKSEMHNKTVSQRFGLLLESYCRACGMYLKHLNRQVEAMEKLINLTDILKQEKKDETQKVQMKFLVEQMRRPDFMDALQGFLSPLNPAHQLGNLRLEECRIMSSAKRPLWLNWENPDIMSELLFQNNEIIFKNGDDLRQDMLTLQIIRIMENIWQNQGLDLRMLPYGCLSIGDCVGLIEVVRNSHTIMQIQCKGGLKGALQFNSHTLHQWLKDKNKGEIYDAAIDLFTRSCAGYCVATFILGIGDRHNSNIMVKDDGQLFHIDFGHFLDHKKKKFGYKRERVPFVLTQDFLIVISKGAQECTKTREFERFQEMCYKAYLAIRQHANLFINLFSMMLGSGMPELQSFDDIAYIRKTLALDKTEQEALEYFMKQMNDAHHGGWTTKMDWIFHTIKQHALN
# procedure details: Inhibition of N-terminal His6-tagged recombinant full-length human p110alpha/untagged recombinant full length human p85alpha expressed in baculovirus infected Sf21 cells using phosphatidylinositol as substrate in presence of gamma-32P-ATP after 5 mins by thin layer chromatographic method
pIC50: −log10 of the molar value.
In this section we review reported pIC50 values for a set of compounds.

Worked cases, pIC50 given:
# chemical string, test target, pIC50
records = [
    ("Cc1ccccc1-n1c(Cn2nc(-c3ccc(Cl)cc3)c3c(N)ncnc32)cc2cccc(C)c2c1=O", "PI3-kinase p110-alpha/p85-alpha (Homo sapiens, UniProt P42336)", "< 5.00"),
    ("Cc1ccccc1-n1c(Cn2nc(-c3ccc4nc(N)sc4c3)c3c(N)ncnc32)cc2cccc(C)c2c1=O", "PI3-kinase p110-alpha/p85-alpha (Homo sapiens, UniProt P42336)", "> 6.00"),
    ("Cc1cccc2cc(Cn3nc(-c4cccc(O)c4)c4c(N)ncnc43)n(C3CC3)c(=O)c12", "PI3-kinase p110-alpha/p85-alpha (Homo sapiens, UniProt P42336)", "> 6.00"),
    ("Cc1cccc2cc(Cn3nc(-c4cccc(O)c4)c4c(N)ncnc43)n(-c3ccccc3Cl)c(=O)c12", "PI3-kinase p110-alpha/p85-alpha (Homo sapiens, UniProt P42336)", "< 5.00"),
    ("Cc1cccc2cc(Cn3nc(I)c4c(N)ncnc43)n(C3CC3)c(=O)c12", "PI3-kinase p110-alpha/p85-alpha (Homo sapiens, UniProt P42336)", "> 5.00"),
    ("Cc1ccccc1-n1c(Cn2nc(Cl)c3c(N)ncnc32)cc2cccc(C)c2c1=O", "PI3-kinase p110-alpha/p85-alpha (Homo sapiens, UniProt P42336)", "< 5.00"),
]

Supply pIC50 measured with PI3-kinase p110-alpha/p85-alpha (Homo sapiens, UniProt P42336) for Cc1cccnc1-n1c(Cn2nc(-c3cccc(O)c3)c3c(N)ncnc32)cc2cccc(C)c2c1=O . < 5.00

Supply pIC50 measured with PI3-kinase p110-alpha/p85-alpha (Homo sapiens, UniProt P42336) for COc1cc(-c2nn(Cc3cc4cccc(C)c4c(=O)n3-c3ccccc3C)c3ncnc(N)c23)ccc1Cl . < 5.00

###

In this section we review reported IC50 values for a set of compounds.
# test target: PI3K p110 beta/p85 alpha (Homo sapiens, UniProt P42338)
# procedure details: Inhibition of N-terminal His6-tagged recombinant full-length human p110beta/untagged recombinant full length p85alpha expressed in baculovirus infected Sf21 cells using phosphatidylinositol as substrate in presence of gamma-32P-ATP after 5 mins by thin layer chromatographic method

# chemical string, test target, measured
records = [
    ("CC(=O)Nc1nc2cc(-c3nn(Cc4cc5cccc(C)c5c(=O)n4-c4ccccc4)c4ncnc(N)c34)ccc2o1", "PI3K p110 beta/p85 alpha (Homo sapiens, UniProt P42338)", "< 0.1 µM"),
    ("Cc1cccc2cc([C@H](C)Nc3ncnc4[nH]cc(Br)c34)n(C3CC3)c(=O)c12", "PI3K p110 beta/p85 alpha (Homo sapiens, UniProt P42338)", "< 0.1 µM"),
]

Please give measured IC50 of the following entry: Cc1ccccc1-n1c(Cn2nc(/C=C/C(N)=O)c3c(N)ncnc32)cc2cccc(C)c2c1=O < 10 µM

Please give measured IC50 of the following entry: Cc1cccc2cc(Cn3nc(-c4cc(O)cc(F)c4)c4c(N)ncnc43)n(-c3ccccc3O)c(=O)c12 < 1 µM

Please give measured IC50 of the following entry: Cc1cccc2cc(Cn3nc(-c4cc(O)cc(F)c4)c4c(N)ncnc43)n(C3CC3)c(=O)c12 < 0.1 µM

Please give measured IC50 of the following entry: Cc1cccc2cc(Cn3nc(-c4cccc(F)c4)c4c(N)ncnc43)n(-c3ccccc3F)c(=O)c12 > 10 µM

Please give measured IC50 of the following entry: COc1ccccc1-n1c(Cn2nc(-c3cc(O)cc(F)c3)c3c(N)ncnc32)cc2cccc(C)c2c1=O < 10 µM

Please give measured IC50 of the following entry: Cc1cccc2cc([C@H](C)Nc3ncnc4[nH]nc(C(N)=O)c34)n(C3CC3)c(=O)c12 < 0.1 µM
